Tested on: Mycobacterium tuberculosis
Test Summary: Antimycobacterial activity against multidrug resistant Mycobacterium tuberculosis by agar dilution method
Type: functional
MIC for assorted compounds
Endpoint: MIC (µM)

[[record]]
compound = "NNC(=O)c1ccncc1"
observed_measurement = 45.6

[[record]]
compound = "CCOC(=O)C1C(c2ccc([N+](=O)[O-])cc2)NC(c2ccc([N+](=O)[O-])cc2)C(C(=O)c2ccc(Cl)cc2)S1(=O)=O (racemic)"
observed_measurement = 0.68

[[record]]
compound = "CC[C@@H](CO)NCCN[C@@H](CC)CO"
observed_measurement = 61.2

[[record]]
compound = "NC(=O)c1cnccn1 [PYRAZINAMIDE]"
observed_measurement = 406

[[record]]
compound = "CCOC(=O)C1C(c2ccc(OC)cc2)NC(c2ccc(OC)cc2)C(C(=O)c2ccc(Cl)cc2)S1(=O)=O (racemic)"
observed_measurement = 1.4

[[record]]
compound = "CCOC(=O)C1C(c2ccc(C)cc2)NC(c2ccc(C)cc2)C(C(=O)c2ccc(Cl)cc2)S1(=O)=O (racemic)"
observed_measurement = 1.48

[[record]]
compound = "CO[C@H]1/C=C/O[C@@]2(C)Oc3c(C)c(O)c4c(O)c(c(/C=N/N5CCN(C)CC5)c(O)c4c3C2=O)NC(=O)/C(C)=C\\C=C\\[C@H](C)[C@H](O)[C@@H](C)[C@@H](O)[C@@H](C)[C@H](OC(C)=O)[C@@H]1C"
observed_measurement = 3.8

[[record]]
compound = "CCOC(=O)C1C(c2ccc(Cl)cc2)NC(c2ccc(Cl)cc2)C(C(=O)c2ccc(Cl)cc2)S1(=O)=O (racemic)"
observed_measurement = 5.52

